Assay: Biodistribution and in vivo binding specificity in PC-3 tumor-bearing BALB/c nu/nu mice
Conditions: male, BALB/c nu/nu, mouse, bone, iv, 45 pmol, total radioactivity, male BALB/c nu/nu mice with PC-3 xenografts, 45 pmol i.v., 6 h p.i.; read-out: Bone uptake
resultType: tissue uptake at 6 h (%ID/g)
Number only, in %ID/g; omit the unit.

q: Report tissue uptake at 6 h for CC(C)C[C@H](NC(=O)C[C@H](O)[C@H](CC(C)C)NC(=O)[C@H](Cc1c[nH]cn1)NC(=O)CNC(=O)[C@@H](NC(=O)[C@H](C)NC(=O)[C@H](Cc1c[nH]c2ccccc12)NC(=O)[C@H](CCC(N)=O)NC(=O)[C@@H](Cc1ccccc1)NC(=O)COCCOCCNC(=O)CN1CCN(CC(=O)O)CCN(CC(=O)O)CC1)C(C)C)C(N)=O [[^18F]AlF-NOTA-P2-RM26] please.
a: 0.22
